experiment: growth inhibitors of wild-type E. coli, primary screen, strain BW25113, expanded library, OD600 (AID 710); conditions: OD600 absorbance, at 100 µM, hits give high values;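 note: growth measured after 20 h incubation at 37 °C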
In all, about 98,000 compounds went through this assay and about 150 (0.15%) were called active. This is one part of a sample in which actives are shown more often than they occur.
measuredMetric: growth inhibition (%)
The reply should contain only the number, in %.

What does the record list as growth inhibition for O=C(N/N=C/C=C/c1ccccc1)C1CC1(c1ccccc1)c1ccccc1 (stereo not given) ?
-15

Endpoint output: growth inhibition of CCOCCOCCC(C(=O)O)P(=O)(c1ccccc1)c1ccccc1 (stereo not given) . Value?
7

Give the measured growth inhibition of `CC(=O)c1ccc2c(c1)c1ccccc1n2CC(C)C` .
-1

growth inhibition for `CC(=O)c1c(C)n([O-])c2ccccc2[n+]1=O` ?
100

Any idea what growth inhibition was measured for `NC(N)=N/N=C/c1ccc(OCc2ccc(Cl)cc2Cl)cc1` ?
97

FYI, the data here is from PubChem BioAssay AID710.
